IC50 for assorted compounds
targetSystem: JMJD2C (Homo sapiens (Human), UniProt Q9H3R0)
Sequence (Q9H3R0 2-372): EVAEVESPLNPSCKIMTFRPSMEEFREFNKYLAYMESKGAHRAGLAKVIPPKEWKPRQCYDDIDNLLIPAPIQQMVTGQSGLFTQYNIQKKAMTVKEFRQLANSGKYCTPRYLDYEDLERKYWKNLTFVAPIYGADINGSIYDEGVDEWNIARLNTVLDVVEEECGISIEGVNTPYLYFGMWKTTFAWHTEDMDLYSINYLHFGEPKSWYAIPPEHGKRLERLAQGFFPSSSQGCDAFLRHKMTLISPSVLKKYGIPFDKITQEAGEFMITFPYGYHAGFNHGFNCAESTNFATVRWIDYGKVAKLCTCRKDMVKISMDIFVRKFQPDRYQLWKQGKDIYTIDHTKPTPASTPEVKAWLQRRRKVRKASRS

| compound | IC50 |
| --- | --- |
| Cc1ccc(COc2ccnn2-c2cc(C(=O)O)ccn2)c(F)c1F [Example 94] | < 100 nM |
| CCc1ccc(COc2ccnn2-c2cc(C(=O)O)ccn2)cc1 [Example 56] | 100 to 1000 nM |
| Cc1cc(F)ccc1Cc1cc(O)n(-c2cc(C(=O)O)ccn2)n1 [Example 173] | 1000 to 10000 nM |
| COc1cc(-c2ccnn2-c2cc(C(=O)O)ccn2)ccc1Cl [Example 22] | 1000 to 10000 nM |
| O=C(O)c1ccnc(-n2nccc2OCc2cccc(Cl)c2)c1 [Example 58] | < 100 nM |
| O=C(O)c1ccnc(-n2nc(-c3ccccc3Cl)cc2O)c1 [Example 7] | > 10000 nM |
| N#Cc1ccc(COc2ccnn2-c2cc(C(=O)O)ccn2)cc1 [Example 99] | < 100 nM |
| O=C(O)c1ccnc(-n2nc(Cc3ccc(F)cc3F)cc2O)c1 [Example 175] | 1000 to 10000 nM |
| Cc1ccc(-c2cc(N)nn2-c2cc(C(=O)O)ccn2)cc1 [Example 48] | 1000 to 10000 nM |
| O=C(O)c1ccnc(-n2nccc2OCc2ccc(Cl)cc2OCc2ccc(F)cc2)c1 [Example 117] | 1000 to 10000 nM |
